B1: glmS ribozyme (parent)
chain: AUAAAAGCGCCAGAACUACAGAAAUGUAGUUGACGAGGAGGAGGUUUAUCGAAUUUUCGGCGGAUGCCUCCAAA

# Variants of: B1
# test-description: self-cleavage kobs at 160 uM GlcN6P; higher = faster cleavage; RNA array
# particulars: with glucosamine-6-phosphate
This sample holds only a part of the variants without activity.
variants and their reported self-cleavage kobs at 160 uM GlcN6P

Query: Value lookup for self-cleavage kobs at 160 uM GlcN6P; key = U30G A39U
Response: 0.000455 s⁻¹

Query: Returns the measured self-cleavage kobs at 160 uM GlcN6P for the input variant. Input: G13U A64G
Response: 4.62e-05 s⁻¹

Query: Please look up its self-cleavage kobs at 160 uM GlcN6P: G43C G60C
Response: < 1e-05 s⁻¹

Query: // returns reported self-cleavage kobs at 160 uM GlcN6P for input C11G U31A U47G
Response: < 1e-05 s⁻¹

Query: Recorded self-cleavage kobs at 160 uM GlcN6P of U54C G66A , please.
Response: 0.00112 s⁻¹

Query: Value lookup for self-cleavage kobs at 160 uM GlcN6P; key = C16A G41A U56G
Response: < 1e-05 s⁻¹

Reference for the values: the supplement of paper PMC7125110
